Each recorded value in this set is attributed to the supplement of paper PMC9112550.

Listing of recorded shrunken log2 fold change by entry.
Tested on: Escherichia coli TOP10
Test description: shrunken log2 fold change of peptide-encoding DNA abundance (4.5 h post-induction vs induction); higher = less antimicrobial activity (less host growth inhibition)
Reported conditions: time post-induction: 4.5 h; library: site-saturation at positions 5, 18, 19, 20
Measurement type: shrunken log2 fold change

sequence_record=RRIRTRPPRLPRPRPRPISSPRP measurement_type="shrunken log2 fold change" measured_number=-0.0114
sequence_record=RRIRFRPPRLPRPRPRPIYPPRP measurement_type="shrunken log2 fold change" measured_number=-0.574
sequence_record=RRIRYRPPRLPRPRPRPIPNPRP measurement_type="shrunken log2 fold change" measured_number=-0.336
sequence_record=RRIRTRPPRLPRPRPRPLAFPRP measurement_type="shrunken log2 fold change" measured_number=2.19
sequence_record=RRIRTRPPRLPRPRPRPSEDPRP measurement_type="shrunken log2 fold change" measured_number=-0.494
sequence_record=RRIRARPPRLPRPRPRPVVIPRP measurement_type="shrunken log2 fold change" measured_number=0.206
sequence_record=RRIRCRPPRLPRPRPRPHICPRP measurement_type="shrunken log2 fold change" measured_number=-0.272
sequence_record=RRIRVRPPRLPRPRPRPAYMPRP measurement_type="shrunken log2 fold change" measured_number=-0.271
sequence_record=RRIRHRPPRLPRPRPRPAICPRP measurement_type="shrunken log2 fold change" measured_number=-0.218
sequence_record=RRIRFRPPRLPRPRPRPNPHPRP measurement_type="shrunken log2 fold change" measured_number=-0.428
sequence_record=RRIRSRPPRLPRPRPRPYPHPRP measurement_type="shrunken log2 fold change" measured_number=-0.227
sequence_record=RRIRHRPPRLPRPRPRPYCGPRP measurement_type="shrunken log2 fold change" measured_number=0.113
sequence_record=RRIRMRPPRLPRPRPRPDFHPRP measurement_type="shrunken log2 fold change" measured_number=-0.129
sequence_record=RRIRNRPPRLPRPRPRPTYWPRP measurement_type="shrunken log2 fold change" measured_number=-0.101
sequence_record=RRIRYRPPRLPRPRPRPALEPRP measurement_type="shrunken log2 fold change" measured_number=-0.486
sequence_record=RRIRRRPPRLPRPRPRPWTDPRP measurement_type="shrunken log2 fold change" measured_number=-0.131
sequence_record=RRIRPRPPRLPRPRPRPGIEPRP measurement_type="shrunken log2 fold change" measured_number=-0.00839
sequence_record=RRIRMRPPRLPRPRPRPYQKPRP measurement_type="shrunken log2 fold change" measured_number=-0.0182
sequence_record=RRIRDRPPRLPRPRPRPYAVPRP measurement_type="shrunken log2 fold change" measured_number=-0.165
sequence_record=RRIRQRPPRLPRPRPRPHQMPRP measurement_type="shrunken log2 fold change" measured_number=0.0681
sequence_record=RRIRHRPPRLPRPRPRPWSLPRP measurement_type="shrunken log2 fold change" measured_number=-0.121
sequence_record=RRIRCRPPRLPRPRPRPSMWPRP measurement_type="shrunken log2 fold change" measured_number=-0.648
sequence_record=RRIRVRPPRLPRPRPRPKRTPRP measurement_type="shrunken log2 fold change" measured_number=0.0795
sequence_record=RRIRWRPPRLPRPRPRPAGEPRP measurement_type="shrunken log2 fold change" measured_number=0.432
sequence_record=RRIRERPPRLPRPRPRPWIKPRP measurement_type="shrunken log2 fold change" measured_number=-0.924
sequence_record=RRIRERPPRLPRPRPRPTLQPRP measurement_type="shrunken log2 fold change" measured_number=0.125
sequence_record=RRIRERPPRLPRPRPRPVGTPRP measurement_type="shrunken log2 fold change" measured_number=0.0306
sequence_record=RRIRTRPPRLPRPRPRPVIEPRP measurement_type="shrunken log2 fold change" measured_number=-0.408
sequence_record=RRIRWRPPRLPRPRPRPVYNPRP measurement_type="shrunken log2 fold change" measured_number=-0.817
sequence_record=RRIRPRPPRLPRPRPRPRLFPRP measurement_type="shrunken log2 fold change" measured_number=1.92
sequence_record=RRIRTRPPRLPRPRPRPLSDPRP measurement_type="shrunken log2 fold change" measured_number=-0.029
sequence_record=RRIRDRPPRLPRPRPRPHNMPRP measurement_type="shrunken log2 fold change" measured_number=-0.135
sequence_record=RRIRSRPPRLPRPRPRPHWAPRP measurement_type="shrunken log2 fold change" measured_number=-0.0673
sequence_record=RRIRYRPPRLPRPRPRPSVWPRP measurement_type="shrunken log2 fold change" measured_number=0.0896
sequence_record=RRIRQRPPRLPRPRPRPSSCPRP measurement_type="shrunken log2 fold change" measured_number=0.0394
sequence_record=RRIRGRPPRLPRPRPRPNCVPRP measurement_type="shrunken log2 fold change" measured_number=0.543
sequence_record=RRIRARPPRLPRPRPRPDGQPRP measurement_type="shrunken log2 fold change" measured_number=0.0234
sequence_record=RRIRARPPRLPRPRPRPDRAPRP measurement_type="shrunken log2 fold change" measured_number=0.642
sequence_record=RRIRDRPPRLPRPRPRPCTFPRP measurement_type="shrunken log2 fold change" measured_number=-0.0767
sequence_record=RRIRYRPPRLPRPRPRPTRNPRP measurement_type="shrunken log2 fold change" measured_number=-0.404
sequence_record=RRIRGRPPRLPRPRPRPWLNPRP measurement_type="shrunken log2 fold change" measured_number=-0.00435
sequence_record=RRIRKRPPRLPRPRPRPSGNPRP measurement_type="shrunken log2 fold change" measured_number=0.267

###

System: Escherichia coli TOP10
Test description: shrunken log2 fold change of peptide-encoding DNA abundance (4.5 h post-induction vs induction); higher = less antimicrobial activity (less host growth inhibition)
Reported conditions: time post-induction: 4.5 h; library: site-saturation at positions 5, 18, 19, 20
Measurement type: shrunken log2 fold change

sequence_record=RRIRGRPPRLPRPRPRPAFVPRP target_of_assay="Escherichia coli TOP10" measurement_type="shrunken log2 fold change" result=0.373
sequence_record=RRIRHRPPRLPRPRPRPGKQPRP target_of_assay="Escherichia coli TOP10" measurement_type="shrunken log2 fold change" result=-0.173
sequence_record=RRIRQRPPRLPRPRPRPAMAPRP target_of_assay="Escherichia coli TOP10" measurement_type="shrunken log2 fold change" result=-0.134
sequence_record=RRIRGRPPRLPRPRPRPNTHPRP target_of_assay="Escherichia coli TOP10" measurement_type="shrunken log2 fold change" result=0.102
sequence_record=RRIRLRPPRLPRPRPRPWFSPRP target_of_assay="Escherichia coli TOP10" measurement_type="shrunken log2 fold change" result=-0.225
sequence_record=RRIRSRPPRLPRPRPRPKKGPRP target_of_assay="Escherichia coli TOP10" measurement_type="shrunken log2 fold change" result=0.0379
sequence_record=RRIRARPPRLPRPRPRPHNPPRP target_of_assay="Escherichia coli TOP10" measurement_type="shrunken log2 fold change" result=0.0946
sequence_record=RRIRQRPPRLPRPRPRPHWAPRP target_of_assay="Escherichia coli TOP10" measurement_type="shrunken log2 fold change" result=-0.143
sequence_record=RRIRWRPPRLPRPRPRPDKYPRP target_of_assay="Escherichia coli TOP10" measurement_type="shrunken log2 fold change" result=-0.126
sequence_record=RRIRIRPPRLPRPRPRPQFGPRP target_of_assay="Escherichia coli TOP10" measurement_type="shrunken log2 fold change" result=1.74
sequence_record=RRIRTRPPRLPRPRPRPMHDPRP target_of_assay="Escherichia coli TOP10" measurement_type="shrunken log2 fold change" result=-0.00302
sequence_record=RRIRTRPPRLPRPRPRPSMPPRP target_of_assay="Escherichia coli TOP10" measurement_type="shrunken log2 fold change" result=-0.363
sequence_record=RRIRPRPPRLPRPRPRPCYMPRP target_of_assay="Escherichia coli TOP10" measurement_type="shrunken log2 fold change" result=-1.12
sequence_record=RRIRNRPPRLPRPRPRPTFRPRP target_of_assay="Escherichia coli TOP10" measurement_type="shrunken log2 fold change" result=-0.22

###

Listing of recorded shrunken log2 fold change by entry.
System: Escherichia coli TOP10;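 further: peptides expressed intracellularly from a pBAD plasmid library in pooled LB shake-flask culture, induced with 0.3% L-arabinose, DNA abundance read by NGS, three biological replicates, DESeq2 with apeglm shrinkage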
Test description: shrunken log2 fold change of peptide-encoding DNA abundance (4.5 h post-induction vs induction); higher = less antimicrobial activity (less host growth inhibition)
Reported conditions: time post-induction: 4.5 h; library: site-saturation at positions 5, 18, 19, 20
Measurement type: shrunken log2 fold change

sequence_record=RRIRCRPPRLPRPRPRPWGWPRP target_of_assay="Escherichia coli TOP10" result=0.221
sequence_record=RRIRTRPPRLPRPRPRPHYAPRP target_of_assay="Escherichia coli TOP10" result=-0.11
sequence_record=RRIRHRPPRLPRPRPRPWQVPRP target_of_assay="Escherichia coli TOP10" result=-0.0402
sequence_record=RRIRQRPPRLPRPRPRPEPEPRP target_of_assay="Escherichia coli TOP10" result=0.813
sequence_record=RRIRWRPPRLPRPRPRPNPHPRP target_of_assay="Escherichia coli TOP10" result=-0.0669
sequence_record=RRIRPRPPRLPRPRPRPNYFPRP target_of_assay="Escherichia coli TOP10" result=-0.435
sequence_record=RRIRERPPRLPRPRPRPDYTPRP target_of_assay="Escherichia coli TOP10" result=-1.01
sequence_record=RRIRWRPPRLPRPRPRPCTHPRP target_of_assay="Escherichia coli TOP10" result=0.0298
sequence_record=RRIRIRPPRLPRPRPRPMMCPRP target_of_assay="Escherichia coli TOP10" result=0.0233
sequence_record=RRIRPRPPRLPRPRPRPTKNPRP target_of_assay="Escherichia coli TOP10" result=0.0886
sequence_record=RRIRSRPPRLPRPRPRPWRDPRP target_of_assay="Escherichia coli TOP10" result=0.0985
sequence_record=RRIRWRPPRLPRPRPRPRVKPRP target_of_assay="Escherichia coli TOP10" result=0.13
sequence_record=RRIRFRPPRLPRPRPRPFERPRP target_of_assay="Escherichia coli TOP10" result=-0.0442
sequence_record=RRIRFRPPRLPRPRPRPPAFPRP target_of_assay="Escherichia coli TOP10" result=0.112
sequence_record=RRIRCRPPRLPRPRPRPYWYPRP target_of_assay="Escherichia coli TOP10" result=-0.553
sequence_record=RRIRPRPPRLPRPRPRPERMPRP target_of_assay="Escherichia coli TOP10" result=0.122
sequence_record=RRIRGRPPRLPRPRPRPQCYPRP target_of_assay="Escherichia coli TOP10" result=-0.0337
sequence_record=RRIRDRPPRLPRPRPRPNQAPRP target_of_assay="Escherichia coli TOP10" result=-0.0261
sequence_record=RRIRVRPPRLPRPRPRPYCTPRP target_of_assay="Escherichia coli TOP10" result=-0.284
sequence_record=RRIRSRPPRLPRPRPRPLEHPRP target_of_assay="Escherichia coli TOP10" result=0.0173
sequence_record=RRIRNRPPRLPRPRPRPDYNPRP target_of_assay="Escherichia coli TOP10" result=-0.782
sequence_record=RRIRARPPRLPRPRPRPVTLPRP target_of_assay="Escherichia coli TOP10" result=-0.121
sequence_record=RRIRLRPPRLPRPRPRPVVEPRP target_of_assay="Escherichia coli TOP10" result=0.175
sequence_record=RRIRQRPPRLPRPRPRPSEEPRP target_of_assay="Escherichia coli TOP10" result=-0.226
sequence_record=RRIRARPPRLPRPRPRPWRMPRP target_of_assay="Escherichia coli TOP10" result=0.0537
sequence_record=RRIRRRPPRLPRPRPRPQFPPRP target_of_assay="Escherichia coli TOP10" result=0.133
sequence_record=RRIRFRPPRLPRPRPRPLWCPRP target_of_assay="Escherichia coli TOP10" result=-0.0894
sequence_record=RRIRQRPPRLPRPRPRPQHKPRP target_of_assay="Escherichia coli TOP10" result=-0.205
sequence_record=RRIRVRPPRLPRPRPRPVCDPRP target_of_assay="Escherichia coli TOP10" result=0.0894
sequence_record=RRIRQRPPRLPRPRPRPAIMPRP target_of_assay="Escherichia coli TOP10" result=-0.159
sequence_record=RRIRHRPPRLPRPRPRPWYTPRP target_of_assay="Escherichia coli TOP10" result=-0.17
sequence_record=RRIRFRPPRLPRPRPRPIRWPRP target_of_assay="Escherichia coli TOP10" result=0.0239
sequence_record=RRIRFRPPRLPRPRPRPCEGPRP target_of_assay="Escherichia coli TOP10" result=-0.086
sequence_record=RRIRRRPPRLPRPRPRPRAPPRP target_of_assay="Escherichia coli TOP10" result=1.02
sequence_record=RRIRFRPPRLPRPRPRPPKCPRP target_of_assay="Escherichia coli TOP10" result=0.0793
